Target: Macaca fascicularis IL-36R extracellular domain expressed with a C-terminal myc-myc-hexahistidine tag (Macaca fascicularis)
Assay: SPR Biacore T200, mAb captured by anti-hFc, 37C, PBS-T pH 7.4
measured_quantity: koff (s⁻¹)
One number for each entry, in s⁻¹.

Provide one value: measured koff of H4H14731P (antibody, human IgG4 S228P, kappa, V domains shown) VH: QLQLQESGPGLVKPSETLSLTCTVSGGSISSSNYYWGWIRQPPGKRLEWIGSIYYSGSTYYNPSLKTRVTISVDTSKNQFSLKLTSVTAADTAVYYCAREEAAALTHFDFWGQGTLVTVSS VL: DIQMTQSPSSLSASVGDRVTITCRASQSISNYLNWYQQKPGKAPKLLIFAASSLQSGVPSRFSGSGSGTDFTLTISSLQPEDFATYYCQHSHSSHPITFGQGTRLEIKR 0.00361

All figures here come from patent US20200017592A1.
